# inhibition at 1 µM values compiled below
assayed.target: COX-1 (Ovis aries)
Construct: purchased BioVision (Milpitas, CA, USA) K548-100
Sequence (P05979 25-600): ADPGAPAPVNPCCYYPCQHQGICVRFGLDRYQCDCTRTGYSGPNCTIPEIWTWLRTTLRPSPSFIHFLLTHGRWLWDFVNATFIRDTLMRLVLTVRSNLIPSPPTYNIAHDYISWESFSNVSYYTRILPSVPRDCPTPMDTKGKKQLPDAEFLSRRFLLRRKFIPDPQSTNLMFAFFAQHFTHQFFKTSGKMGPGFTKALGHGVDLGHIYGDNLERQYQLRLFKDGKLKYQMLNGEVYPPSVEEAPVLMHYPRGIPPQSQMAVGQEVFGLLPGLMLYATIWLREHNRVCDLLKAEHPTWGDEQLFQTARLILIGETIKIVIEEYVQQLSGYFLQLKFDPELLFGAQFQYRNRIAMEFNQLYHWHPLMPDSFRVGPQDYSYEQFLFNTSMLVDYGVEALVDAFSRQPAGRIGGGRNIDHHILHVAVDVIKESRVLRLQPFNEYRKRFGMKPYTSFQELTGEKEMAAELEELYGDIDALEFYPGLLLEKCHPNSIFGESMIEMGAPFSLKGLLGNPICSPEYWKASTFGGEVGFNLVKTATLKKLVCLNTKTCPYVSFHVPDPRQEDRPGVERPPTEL
test.method.notes: Fluorimetric COX-1 inhibition screening kit (BioVision)
Format: biochemical
experimental.parameters: 10^−6 M
measured.quantity: inhibition at 1 µM (%)

> print(dat)
                            molecule.smiles   measured.quantity  number
1  CCN(CC)c1ccc(-c2nc3ccccc3n2CCN2CCOCC2)cc1  inhibition at 1 µM    40.9
2     CCOc1ccc(-c2nc3ccccc3n2CCN2CCOCC2)cc1  inhibition at 1 µM    44.5
3       Cc1ccc(-c2nc3ccccc3n2CCN2CCOCC2)cc1  inhibition at 1 µM    40.1
4  c1ccc(COc2ccc(-c3nc4ccccc4n3CCN3CCOCC3)cc2)cc1  inhibition at 1 µM    42.1
5      COc1ccc(-c2nc3ccccc3n2CCN2CCOCC2)cc1  inhibition at 1 µM    42.8
6  FC(F)(F)Oc1ccc(-c2nc3ccccc3n2CCN2CCOCC2)cc1  inhibition at 1 µM      42

* * *

assayed.target: COX-2 (Homo sapiens, UniProt P35354)
Construct: purchased BioVision (Milpitas, CA, USA) K547-100
test.method.notes: Fluorimetric COX-2 inhibition screening kit (BioVision)
Assay type: biochemical
experimental.parameters: 10^−6 M; read-out: COX 2 Inhibition %
measured.quantity: inhibition at 1 µM (%)

> print(dat)
                            molecule.smiles                        assayed.target   measured.quantity  number
1      COc1ccc(-c2nc3ccccc3n2CCN2CCOCC2)cc1  COX-2 (Homo sapiens, UniProt P35354)  inhibition at 1 µM    43.7
2  c1ccc(COc2ccc(-c3nc4ccccc4n3CCN3CCOCC3)cc2)cc1  COX-2 (Homo sapiens, UniProt P35354)  inhibition at 1 µM    40.2
3  CCN(CC)c1ccc(-c2nc3ccccc3n2CCN2CCOCC2)cc1  COX-2 (Homo sapiens, UniProt P35354)  inhibition at 1 µM    42.6
4     CCOc1ccc(-c2nc3ccccc3n2CCN2CCOCC2)cc1  COX-2 (Homo sapiens, UniProt P35354)  inhibition at 1 µM    43.4
5       Cc1ccc(-c2nc3ccccc3n2CCN2CCOCC2)cc1  COX-2 (Homo sapiens, UniProt P35354)  inhibition at 1 µM    40.3

* * *

assayed.target: AChE (Homo sapiens)
Sequence (P22303 32-614): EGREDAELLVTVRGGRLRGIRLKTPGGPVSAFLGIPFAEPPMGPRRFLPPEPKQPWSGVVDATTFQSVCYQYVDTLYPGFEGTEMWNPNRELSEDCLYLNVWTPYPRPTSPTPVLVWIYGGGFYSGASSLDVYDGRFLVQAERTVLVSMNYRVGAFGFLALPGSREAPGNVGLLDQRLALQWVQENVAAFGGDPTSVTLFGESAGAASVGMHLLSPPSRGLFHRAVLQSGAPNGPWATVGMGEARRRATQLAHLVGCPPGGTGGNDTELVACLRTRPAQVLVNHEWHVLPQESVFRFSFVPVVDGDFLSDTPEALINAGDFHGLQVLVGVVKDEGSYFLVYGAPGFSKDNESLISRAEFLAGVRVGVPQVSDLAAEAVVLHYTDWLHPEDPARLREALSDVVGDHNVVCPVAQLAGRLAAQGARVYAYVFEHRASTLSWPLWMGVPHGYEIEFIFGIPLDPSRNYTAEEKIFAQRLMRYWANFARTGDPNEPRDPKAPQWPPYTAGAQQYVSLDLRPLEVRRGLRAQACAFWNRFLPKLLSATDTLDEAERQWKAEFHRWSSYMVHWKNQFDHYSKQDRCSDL
Assay type: biochemical
experimental.parameters: 10^-3 M
Label 1 (yes) when AChE Inhibition (%) is strictly below 8%; at or above that, label 0 (no).

> print(dat)
                            molecule.smiles  assigned.class
1   CC(C)c1ccc(-c2nc3ccccc3n2CCN2CCOCC2)cc1          0 (no)
2  CCN(CC)c1ccc(-c2nc3ccccc3n2CCN2CCOCC2)cc1          0 (no)
3  c1ccc(COc2ccc(-c3nc4ccccc4n3CCN3CCOCC3)cc2)cc1          0 (no)
4   CN(C)c1ccc(-c2nc3ccccc3n2CCN2CCOCC2)cc1         1 (yes)
5       Fc1ccc(-c2nc3ccccc3n2CCN2CCOCC2)cc1          0 (no)
6       Cc1ccc(-c2nc3ccccc3n2CCN2CCOCC2)cc1          0 (no)
7  c1ccc(-c2ccc(-c3nc4ccccc4n3CCN3CCOCC3)cc2)cc1         1 (yes)
8     CCOc1ccc(-c2nc3ccccc3n2CCN2CCOCC2)cc1         1 (yes)
9  FC(F)(F)c1ccc(-c2nc3ccccc3n2CCN2CCOCC2)cc1          0 (no)

* * *

assayed.target: COX-2 (Homo sapiens)
Sequence (P35354 18-604): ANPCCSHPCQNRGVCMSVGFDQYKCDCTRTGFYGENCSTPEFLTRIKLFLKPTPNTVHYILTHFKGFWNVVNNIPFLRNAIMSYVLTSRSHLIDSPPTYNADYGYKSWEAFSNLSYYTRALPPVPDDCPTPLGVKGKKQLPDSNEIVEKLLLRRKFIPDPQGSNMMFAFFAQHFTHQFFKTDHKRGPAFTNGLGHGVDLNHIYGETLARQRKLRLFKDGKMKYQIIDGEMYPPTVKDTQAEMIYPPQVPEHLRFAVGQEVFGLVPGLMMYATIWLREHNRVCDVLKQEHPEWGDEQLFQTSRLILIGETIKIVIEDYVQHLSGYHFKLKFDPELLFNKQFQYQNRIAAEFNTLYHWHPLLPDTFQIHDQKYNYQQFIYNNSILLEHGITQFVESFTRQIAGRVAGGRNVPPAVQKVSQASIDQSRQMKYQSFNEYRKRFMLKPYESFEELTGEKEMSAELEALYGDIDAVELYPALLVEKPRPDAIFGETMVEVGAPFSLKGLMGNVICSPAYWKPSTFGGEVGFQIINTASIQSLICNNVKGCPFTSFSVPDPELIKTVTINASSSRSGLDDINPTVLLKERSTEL
Note to self: use label 1 only for IC50 readings below 10 µM; a reading exactly at 10 µM still gets label 0.

> print(dat)
                                   molecule  assigned.class
1  c1ccc(COc2ccc(-c3nc4ccccc4n3CCN3CCOCC3)cc2)cc1 [Compound 2f]         label 0
2  FC(F)(F)Oc1ccc(-c2nc3ccccc3n2CCN2CCOCC2)cc1 [Compound 2m]         label 0
3  CCN(CC)c1ccc(-c2nc3ccccc3n2CCN2CCOCC2)cc1 [Compound 2h]         label 0
4  CCOc1ccc(-c2nc3ccccc3n2CCN2CCOCC2)cc1 [Compound 2j]         label 0
5  Cc1ccc(-c2nc3ccccc3n2CCN2CCOCC2)cc1 [Compound 2a]         label 0
6  COc1ccc(-c2nc3ccccc3n2CCN2CCOCC2)cc1 [Compound 2b]         label 1
